Recorded pIC50, one value per entry.
# target: human C5aR(CD88) (Homo sapiens, UniProt P21730)
# Construct: expressed in transfected cells; host or cells: rat basophilic leukemia cells (RBL)
# Sequence (P21730 whole entry): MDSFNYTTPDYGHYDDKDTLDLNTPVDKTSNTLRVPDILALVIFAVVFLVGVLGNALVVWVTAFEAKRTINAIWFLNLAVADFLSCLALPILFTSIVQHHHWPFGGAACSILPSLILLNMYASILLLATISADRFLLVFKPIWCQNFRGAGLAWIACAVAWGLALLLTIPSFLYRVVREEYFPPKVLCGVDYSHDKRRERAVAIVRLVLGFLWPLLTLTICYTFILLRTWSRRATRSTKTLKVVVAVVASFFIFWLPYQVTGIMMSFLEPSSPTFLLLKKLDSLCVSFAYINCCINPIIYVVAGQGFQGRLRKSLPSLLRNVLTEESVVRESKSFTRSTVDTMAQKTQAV
# test_protocol: Determination of the IC50 value in an enzyme release assay (functional assay, antagonistic activity)
# Type: cell-based
# condition_summary: antagonistic activity; IC50 group in enzyme release assay, RBL cells expressing human C5aR(CD88); read-out: activity (group)
pIC50: −log10 of the molar value. Starred links: 1 amine or outer side, 2 acyl side, 3 side chain; linkers in the order of their positions; H or OH if unused. Non-standard residues stand in square brackets, D forms with d. Residues, ends and D or L forms follow the SMILES beside them. *: point of attachment. Phe(3-NO2) = N[C@@H](Cc1cccc([N+](=O)[O-])c1)C(=O)O; Dihydroorotyl(S) = O=C1C[C@@H](C(=O)*)NC(=O)N1; Phe(3-Cl) = N[C@@H](Cc1cccc(Cl)c1)C(=O)O; Phe(4-F) = N[C@@H](Cc1ccc(F)cc1)C(=O)O; X5 = CCN(CC)CCC[C@H](N[*:1])C(=O)[*:2]; 2Nal = N[C@@H](Cc1ccc2ccccc2c1)C(=O)O; Bta = N[C@@H](Cc1csc2ccccc12)C(=O)O; d(hLeu) = CC(C)CC[C@@H](N)C(=O)O; dCha = N[C@H](CC1CCCCC1)C(=O)O; Phg = N[C@H](C(=O)O)c1ccccc1; Orn = NCCC[C@H](N)C(=O)O

{"molecule": "CC(C)CC[C@@H](NC(=O)[C@@H]1CCCN1C(=O)[C@H](CCCN)NC(=O)[C@H](Cc1ccccc1)NC(=O)[C@@H]1CC(=O)NC(=O)N1)C(=O)N[C@@H](Cc1ccc(F)cc1)C(=O)N[C@@H](Cc1ccccc1)C(N)=O [Compound 352, Hoo-Phe-Orn-Pro-hle-Pff-Phe-NH2] ({Dihydroorotyl(S)}-F[Orn]P[d(hLeu)][Phe(4-F)]F-NH2)", "pIC50": "7.30 to 7.70"}
{"molecule": "CCN(CC)CCC[C@H](NC(=O)[C@H](Cc1ccccc1)NC(C)=O)C(=O)N1CCC[C@H]1C(=O)N[C@H](CC1CCCCC1)C(=O)N[C@@H](Cc1csc2ccccc12)C(=O)N[C@@H](Cc1ccccc1)C(N)=O [Compound 233, Ac-Phe-OrE-Pro-cha-Bta-Phe-NH2] (Ac-F[X5]P[dCha][Bta]F-NH2)", "pIC50": "6.70 to 7.30"}
{"molecule": "CC(=O)N[C@H](C(=O)N[C@@H](CCCN)C(=O)N1CCC[C@H]1C(=O)N[C@H](CC1CCCCC1)C(=O)N[C@@H](Cc1csc2ccccc12)C(=O)N[C@@H](Cc1ccccc1)C(N)=O)c1ccccc1 [Compound 126, Ac-Phg-Orn-Pro-cha-Bta-Phe-NH2] (Ac-[Phg][Orn]P[dCha][Bta]F-NH2)", "pIC50": "6.70 to 7.30"}
{"molecule": "CC(=O)N[C@@H](Cc1ccccc1)C(=O)N[C@@H](CCCCN)C(=O)N1CCC[C@H]1C(=O)N[C@H](CC1CCCCC1)C(=O)N[C@@H](Cc1c[nH]c2ccccc12)C(=O)N[C@@H](Cc1ccccc1)C(N)=O [Compound 87, Ac-Phe-Lys-Pro-cha-Trp-Phe-NH2] (Ac-FKP[dCha]WF-NH2)", "pIC50": "6.70 to 7.30"}
{"molecule": "CC(=O)N[C@@H](Cc1ccccc1)C(=O)N[C@@H](CCCN)C(=O)N1CCC[C@H]1C(=O)N[C@H](CCC(C)C)C(=O)N[C@@H](Cc1cccc([N+](=O)[O-])c1)C(=O)N[C@@H](Cc1ccccc1)C(N)=O [Compound 287, Ac-Phe-Orn-Pro-hle-Egz-Phe-NH2] (Ac-F[Orn]P[d(hLeu)][Phe(3-NO2)]F-NH2)", "pIC50": "6.70 to 7.30"}
{"molecule": "CC(=O)N[C@@H](Cc1ccccc1)C(=O)N[C@@H](CCCN)C(=O)N1CCC[C@H]1C(=O)N[C@H](CCC(C)C)C(=O)N[C@@H](Cc1cccc(Cl)c1)C(=O)N[C@@H](Cc1ccc2ccccc2c1)C(N)=O [Compound 288, Ac-Phe-Orn-Pro-hle-Mcf-2Ni—NH2] (Ac-F[Orn]P[d(hLeu)][Phe(3-Cl)][2Nal]-NH2)", "pIC50": "6.70 to 7.30"}
